Each recorded value in this set is attributed to patent US10160771B2.

# Assay Details: Cell Titer-fluor cell activity assay in HCV-1b replicon cells (CC50)
# Assay type: cell-based
Reported Property: CC50 at 3 days

Examples with their reported CC50 at 3 days follow.
Compound	Endpoint Result
COC(=O)NC(C(=O)N1CCCC1c1[nH]c(-c2ccc(-c3ccc(-c4cnc(C5CCCC[C@@H]5C(=O)N(NC(=O)OC)C(C)C)[nH]4)cc3)cc2)c2c1CCC2)C1CCOCC1 (stereo partly shown) [AL_003]	> 10 nM
COC(=O)N[C@H](C(=O)N1CCC[C@H]1c1ncc(-c2ccc(-c3ccc(-c4cnc([C@H]5C6CCC(C6)[C@@H]5C(=O)NCc5ccc(OC)nc5)[nH]4)cc3)cc2)[nH]1)C(C)C (stereo partly shown) [AA_200_A]	> 1 nM

Give me CC50 at 3 days for each of these compounds, listed below.
1. COC(=O)N[C@H](C(=O)N1CCC[C@H]1c1cnc(-c2ccc(-c3ccc(-c4ncc(C5C6CCC(C6)[C@@H]5C(=O)N(NC(=O)OC)C(C)C)[nH]4)cc3)cc2OC)[nH]1)C(C)C (stereo partly shown) [AA_166_B]
2. COC(=O)N[C@H](C(=O)N1CCC[C@H]1c1ccc(-c2ccc(-c3ccc(-c4cnc([C@@H]5CC6(CCCC6)CN5C(=O)[C@@H](NC(=O)OC)[C@@H](C)OC)[nH]4)cc3)cc2)[nH]1)[C@@H](C)OC [AG_110]
3. COC(=O)N[C@H](C(=O)N1CCC[C@H]1c1ncc(-c2ccc(-c3ccc(-c4cnc(C5C6CCC(C6)[C@H]5C(=O)NCc5cccnc5F)[nH]4)cc3)cc2)[nH]1)[C@@H](C)OC (stereo partly shown) [AA_252_B]
4. COC(=O)N[C@H](C(=O)N1CCCC1c1ncc(-c2ccc3c(c2)oc2cc(-c4ccc([C@@H]5CCCN5C(=O)[C@@H](NC(=O)OC)[C@@H](C)OC)[nH]4)ccc23)[nH]1)[C@@H](C)OC (stereo partly shown) [AG_103]
5. COC(=O)N[C@H](C(=O)N1CCC[C@H]1c1ncc(-c2ccc(-c3ccc(-c4cnc(C5CCCC5C(=O)N(NC(=O)OC)C(C)C)[nH]4)cc3)cc2)[nH]1)C(C)C (stereo partly shown) [AA_008]
6. COC(=O)N[C@H](C(=O)N1CCC[C@H]1c1ncc(-c2ccc(-c3ccc(-c4cnc(C5C6CCC(C6)[C@H]5C(=O)NCc5cccnc5)[nH]4)cc3)cc2)[nH]1)C(C)C (stereo partly shown) [AA_162_A]
7. COC(=O)N[C@H](C(=O)N1CCCC1c1ccc(-c2ccc(-c3ccc(-c4ccc(C5CCCN5C(=O)[C@@H](NC(=O)OC)C(C)C)[nH]4)cc3)cc2)[nH]1)C(C)C (stereo partly shown) [AG_011]
8. COC(=O)N[C@H](C(=O)N1CCC[C@H]1c1ccc(-c2ccc(-c3ccc(-c4cnc([C@@H](NC(=O)[C@@H](NC(=O)OC)[C@@H](C)OC)C(C)C)[nH]4)cc3)cc2)[nH]1)C(C)C [AG_102]

1. > 5 nM
2. > 1 nM
3. > 1 nM
4. > 1 nM
5. > 100 nM
6. > 1 nM
7. > 1 nM
8. > 1 nM

====

# System: HCV genotype 1b (HCV-1b) replicon cells
# Assay Details: HCV genotype 1b replicon luciferase assay (EC50)
# Assay type: cell-based, hepatitis C virus genotype 1b (Con1 clone)
# Study Conditions: 3 days, luciferase (Bright-Glo)
# Experimental: The EC50 and CC50 values of anti-HCV compounds were determined by HCV genotype 1a (HCV-1a) and 1B (HCV-1b) stable transfer replication (replicon) cells. The source of genotype 1a replicon is H77 clones containing K1691R, K2040R and S2204I adaptive mutations. […] 3) suspending cells in each T150 culture flask with 10-15 mL culture medium, absorbing 0.1 mL liquid and diluting 2 times by trypan blue solution as counted. […]
Reported Property: EC50

Compound	Measured Target	Endpoint Result
COC(=O)N[C@H](C(=O)N1CCCC1c1ccc(-c2ccc(-c3ccc(-c4cnc([C@@H]5CCCN5C(=O)[C@@H](NC(=O)OC)[C@@H](C)OC)[nH]4)cc3)cc2)[nH]1)[C@@H](C)OC (single isomer, unassigned) [AG_072_A]	HCV genotype 1b (HCV-1b) replicon cells	1 to 100 pM
COC(=O)N[C@H](C(=O)N1CCCC1c1ccc(-c2ccc(-c3ccc(-c4cnc([C@@H]5CCCN5C(=O)[C@@H](NC(=O)OC)[C@@H](C)OC)[nH]4)cc3)cc2)[nH]1)[C@@H](C)OC (single isomer, unassigned) [AG_072_B]	HCV genotype 1b (HCV-1b) replicon cells	101 to 1000 pM

Give me EC50 for each of these compounds, listed below.
1. COC(=O)N[C@H](C(=O)N1CCC[C@H]1c1ncc(-c2ccc(-c3ccc(-c4cnc(C5C6CCC(C6)[C@H]5C(=O)N[C@H](c5cccnc5)C(C)C)[nH]4)cc3)cc2)[nH]1)[C@@H](C)OC (stereo partly shown) [AA_271_B]
2. COC(=O)N[C@H](C(=O)N1CCC[C@H]1c1ncc(-c2ccc(-c3ccc(-c4cnc([C@H]5C6CCC(C6)[C@@H]5C(=O)NC(C)c5cccnc5)[nH]4)cc3)cc2)[nH]1)C(C)C (single isomer, unassigned) [AA_204_C]

["101 to 1000 pM", "1 to 100 pM"]

====

Assignment: determine reported CC50 at 3 days for the given compounds.
# Assay Details: Cell Titer-fluor cell activity assay in HCV-1b replicon cells (CC50)
# Assay type: cell-based

Examples with their reported CC50 at 3 days follow.
Compound	CC50 at 3 days
COC(=O)NC(C(=O)N1CCCC1c1[nH]c(-c2ccc(-c3ccc(-c4cnc([C@@H]5CCCN5C(=O)[C@@H](NC(=O)OC)C(C)C)[nH]4)cc3)cc2)c2c1CCCC2)C1CCOC1 (stereo partly shown)	> 10 nM
COC(=O)N[C@H](C(=O)N1CCC[C@H]1c1nc2cc(-c3ccc(-c4[nH]c([C@@H]5CCCN5C(=O)[C@@H](NC(=O)OC)C(C)C)c5c4CCC5)cc3)ccc2[nH]1)C(C)C	> 1 nM
COC(=O)NC(C(=O)N1CCC[C@H]1c1ncc(-c2ccc(-c3ccc(-c4[nH]c(C5CCCN5C(=O)[C@@H](NC(=O)OC)C(C)C)c5c4CCCC5)cc3)cc2)[nH]1)C1CCOC(C)C1 (stereo partly shown)	> 100 nM

Give me CC50 at 3 days for each of these compounds, listed below.
1. COC(=O)N[C@H](C(=O)N1CCC[C@H]1c1ncc(-c2ccc(-c3ccc(-c4cnc([C@@H]5[C@H]6CC[C@H](C6)[C@H]5C(=O)NN(C(C)=O)C(C)C)[nH]4)cc3)cc2)[nH]1)C(C)C [AA_300_ENDOA2]
2. COC(=O)N[C@H](C(=O)N1CCC[C@H]1c1ncc(-c2ccc(-c3ccc(-c4cnc(C5C6CCC(C6)[C@@H]5C(=O)N(C)c5ccccn5)[nH]4)cc3)cc2)[nH]1)[C@@H](C)OC (stereo partly shown)
3. COC(=O)NC(C(=O)C1CCCCC1c1ncc(-c2ccc(-c3ccc(-c4[nH]c([C@@H]5CCCN5C(=O)[C@@H](NC(=O)OC)C(C)C)c5c4CCC5)cc3)cc2)[nH]1)C(C)C (stereo partly shown)
4. COC(=O)N[C@H](C(=O)N1CCC[C@H]1c1ncc(-c2ccc(-c3ccc(-c4cnc(C5C6CCC(C6)[C@@H]5C(=O)N(NC(=O)OC)C(C)C)[nH]4)cc3)c(C)c2)[nH]1)C(C)C (stereo partly shown)
5. COC(=O)N[C@H](C(=O)N1CCC[C@H]1c1ncc(-c2ccc(-c3ccc(-c4cnc(C5C6CCC(C6)[C@H]5C(=O)NCc5cccnc5C(F)(F)F)[nH]4)cc3)cc2)[nH]1)[C@@H](C)OC (stereo partly shown)
6. COC(=O)N[C@H](C(=O)N1CCC[C@H]1c1[nH]c(-c2ccc(-c3ccc(-c4cnc([C@@H]5CCCN5C(=O)[C@@H](NC(=O)OC)[C@@H](C)O)[nH]4)cc3)cc2)c2c1CCC2)C(C)C

["> 1 nM", "> 1 nM", "> 10 nM", "> 1 nM", "> 1 nM", "> 1 nM"]

For the compound COC(=O)N[C@H](C(=O)N1CCC[C@H]1c1ncc(-c2ccc(-c3ccc(-c4cnc([C@@H]5C6CCC(C6)[C@H]5C(=O)NCc5nccs5)[nH]4)cc3)cc2)[nH]1)C(C)C (stereo partly shown) , what CC50 at 3 days is on record?
> 1 nM

====

Assignment: determine reported pEC50 for the given molecules.
# System: HCV genotype 1b (HCV-1b) replicon cells
# Assay Details: HCV genotype 1b replicon luciferase assay (EC50)
# Assay type: cell-based, hepatitis C virus genotype 1b (Con1 clone)
# Study Conditions: 3 days, luciferase (Bright-Glo)
pEC50: −log10 of the molar value.

Give me pEC50 for each of these molecules, listed below.
1. COC(=O)N[C@H](C(=O)N1CCC[C@H]1c1ncc(-c2ccc(-c3ccc(-c4[nH]c([C@@H]5CCCN5C(=O)[C@@H](NC(=O)OC)C(C)C)c5c4OCC5)cc3)cc2)[nH]1)C(C)C [AG_122_A]
2. COC(=O)N[C@H](C(=O)N1CC2(C[C@H]1c1ncc(-c3ccc(-c4ccc(-c5[nH]c([C@@H]6CCCN6C(=O)[C@@H](NC(=O)OC)[C@@H](C)OC)c6c5CCC6)cc4)cc3)[nH]1)OCCO2)[C@@H](C)OC
3. COC(=O)N[C@H](C(=O)N1CCC[C@H]1c1ncc(-c2ccc(-c3ccc(-c4cnc(C5C6CCC(C6)[C@H]5C(=O)N(NC(=O)OC)C(C)C)[nH]4)cc3)cc2)[nH]1)C(C)C (stereo partly drawn) [AA_121_B]

["10.00 to 12.00", "10.00 to 12.00", "10.00 to 12.00"]
